Recorded growth for the following compounds
system: NCI-H522 lung; assay: NCI-60 one-dose screen, 48 h (100 = growth as untreated, 0 = no growth, -100 = all killed); settings: 10 µM unless noted
The panel holds about 83,000 compounds, 20% with a hit somewhere; the sample as a whole holds those more often. The source made the active and inactive calls. The calls were made as follows: active = growth percent below 10; inactive = the rest.

Here's what some known entries look like.
| compound | measured-on | value-observed |
| --- | --- | --- |
| CCC(=O)Oc1c(C)cc(O)c2ccccc12 | NCI-H522 lung | 84.5% (inactive) |
| CC(=O)Nc1ccc(O)c(C)c1 | NCI-H522 lung | 93.5% (inactive) |
| Cc1cc(CC(=O)NCCO)n(CCO)c(=O)c1 | NCI-H522 lung | 93.8% (inactive) |
| Nc1nnc2cc(F)ccc2n1 | NCI-H522 lung | 99.8% (inactive) |
| Cc1ccnc(Nc2nc3ccccc3[nH]2)n1 | NCI-H522 lung | 103% (inactive) |
| CC(=O)c1ccc(C)cc1 | NCI-H522 lung | 103% (inactive) |

Notebook: pull reported growth for NCI-H522 lung, entry Cc1cccnc1NC1OC(=O)c2ccccc21 (stereo not drawn) 88.6% (inactive)

Notebook: pull reported growth for NCI-H522 lung, entry ClCC(Cl)C1CCC(Cl)C(Cl)C1 (stereo not drawn) 102% (inactive)

Notebook: pull reported growth for NCI-H522 lung, entry `S=CN1CCCCC1` 109% (inactive)

Notebook: pull reported growth for NCI-H522 lung, entry `Cc1c(-c2ccc(C3CCCCC3)cc2)nc2ccc(F)cc2c1C(=O)O` 38.5% (inactive)

Notebook: pull reported growth for NCI-H522 lung, entry CCC(C)C1CCC(O)CC1 (stereo not drawn) 101% (inactive)

Notebook: pull reported growth for NCI-H522 lung, entry `CCOC(C=O)OCC` 93.1% (inactive)

Notebook: pull reported growth for NCI-H522 lung, entry `COc1ccc(C)cc1NC(=O)SC(C)C` 88.7% [100 µM] (inactive)

Notebook: pull reported growth for NCI-H522 lung, entry `CC(=O)NNC(=S)/N=C\C(C(=O)c1ccccc1)=C(/O)c1ccccc1` 86.3% (inactive)
